Test system: panel of nearly 500 cancer cell lines
Assay: Cancer Cell Line Encyclopedia profiling, 3-day CellTiter-Glo
Assay type: cell-based
Protocol Conditions: es2 (ovary); read-out: IC50
Value Kind: IC50

Need IC50 of CC(=O)c1c(C)c2cnc(Nc3ccc(N4CCNCC4)cn3)nc2n(C2CCCC2)c1=O [Palbociblib] , thanks.
> 8 µM

###

System: panel of nearly 500 cancer cell lines
Assay: Cancer Cell Line Encyclopedia profiling, 3-day CellTiter-Glo
Type: cell-based
Protocol Conditions: colo201 (large_intestine); read-out: IC50
Value Kind: pIC50
Here pIC50 is given on a logarithmic scale as minus log10 of the concentration in mol/L.

Need pIC50 of CC(=O)c1c(C)c2cnc(Nc3ccc(N4CCNCC4)cn3)nc2n(C2CCCC2)c1=O [Palbociblib] , thanks.
5.83

###

System: panel of nearly 500 cancer cell lines
Assay: Cancer Cell Line Encyclopedia profiling, 3-day CellTiter-Glo
Assay type: cell-based
Protocol Conditions: Homo sapiens, MDA-MB-175-VII
Value Kind: IC50

Need IC50 of CN(C)C(=O)c1cc2cnc(Nc3ccc(N4CCNCC4)cn3)nc2n1C1CCCC1 , thanks.
> 8 µM

###

Tested on: panel of nearly 500 cancer cell lines
Assay: Cancer Cell Line Encyclopedia profiling, 3-day CellTiter-Glo
Type: cell-based
Protocol Conditions: SUIT-2
Value Kind: IC50 (µM)
Supply the numeric figure in µM, leaving out any unit text.

Need IC50 of CN(C)C(=O)c1cc2cnc(Nc3ccc(N4CCNCC4)cn3)nc2n1C1CCCC1 , thanks.
7.97

###

System: panel of nearly 500 cancer cell lines
Assay: Cancer Cell Line Encyclopedia profiling, 3-day CellTiter-Glo
Assay type: cell-based
Protocol Conditions: Homo sapiens, SU-DHL-6
Value Kind: EC50 (µM)
Supply the numeric figure in µM, leaving out any unit text.

Need EC50 of CN(C)C(=O)c1cc2cnc(Nc3ccc(N4CCNCC4)cn3)nc2n1C1CCCC1 , thanks.
0.742

###

System: panel of nearly 500 cancer cell lines
Assay: Cancer Cell Line Encyclopedia profiling, 3-day CellTiter-Glo
Type: cell-based
Protocol Conditions: g361 (skin); read-out: IC50
pIC50: −log10 of the molar value.
Value Kind: pIC50

Could you share what pIC50 was measured for CC(=O)c1c(C)c2cnc(Nc3ccc(N4CCNCC4)cn3)nc2n(C2CCCC2)c1=O [Palbociblib] , tested on panel of nearly 500 cancer cell lines?
< 5.10

###

Tested on: panel of nearly 500 cancer cell lines
Assay: Cancer Cell Line Encyclopedia profiling, 3-day CellTiter-Glo
Assay type: cell-based
Protocol Conditions: Homo sapiens, OVSAHO
Value Kind: EC50 (nM)
Supply the numeric figure in nM, leaving out any unit text.

Need EC50 of CC(=O)c1c(C)c2cnc(Nc3ccc(N4CCNCC4)cn3)nc2n(C2CCCC2)c1=O [Palbociclib, reference compound] , thanks.
613

###

Tested on: panel of nearly 500 cancer cell lines
Assay: Cancer Cell Line Encyclopedia profiling, 3-day CellTiter-Glo
Assay type: cell-based
Protocol Conditions: Homo sapiens, OC-314
Value Kind: IC50

Need IC50 of CN(C)C(=O)c1cc2cnc(Nc3ccc(N4CCNCC4)cn3)nc2n1C1CCCC1 , thanks.
> 8 µM

###

System: panel of nearly 500 cancer cell lines
Assay: Cancer Cell Line Encyclopedia profiling, 3-day CellTiter-Glo
Type: cell-based
Protocol Conditions: Homo sapiens, NCI-H1651
Value Kind: EC50 (nM)
Supply the numeric figure in nM, leaving out any unit text.

Need EC50 of CC(=O)c1c(C)c2cnc(Nc3ccc(N4CCNCC4)cn3)nc2n(C2CCCC2)c1=O [Palbociclib, reference compound] , thanks.
2520
